# tested on: acetylcholine receptor (Homo sapiens)
# Sequence (P02708 21-457): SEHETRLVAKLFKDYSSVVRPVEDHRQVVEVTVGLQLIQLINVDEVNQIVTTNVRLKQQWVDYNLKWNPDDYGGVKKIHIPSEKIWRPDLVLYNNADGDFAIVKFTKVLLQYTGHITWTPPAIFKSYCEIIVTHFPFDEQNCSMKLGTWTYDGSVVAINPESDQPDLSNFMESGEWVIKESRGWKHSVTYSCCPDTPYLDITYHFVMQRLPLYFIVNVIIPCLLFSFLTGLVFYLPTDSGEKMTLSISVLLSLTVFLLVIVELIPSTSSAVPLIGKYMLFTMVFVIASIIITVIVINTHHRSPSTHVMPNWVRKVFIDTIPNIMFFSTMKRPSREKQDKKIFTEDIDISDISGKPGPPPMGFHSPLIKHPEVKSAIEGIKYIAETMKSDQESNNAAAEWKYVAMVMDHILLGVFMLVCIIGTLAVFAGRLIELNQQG
# assay overview: SPR binding affinity (RU) of optimized 5mer/6mer/7mer peptides, Examples 6-7
# run parameters: SPR, peptides at 10 μM; 6mer-2 Bottom sequence
measure: Binding affinity (Ru)
Could you give me the number in Ru? Just the number is fine.

**Query** Reported Binding affinity, substance 6mer-2-997 (KISFKK) : ____
**Result** 30

**Query** Reported Binding affinity, substance 6mer-2-1043 (RDKGKK) : ____
**Result** 40

**Query** Reported Binding affinity, substance 6mer-2-1191 (KKADRK) : ____
**Result** 35

**Query** Reported Binding affinity, substance 6mer-2-1165 (RIKAKK) : ____
**Result** 30

**Query** Reported Binding affinity, substance 6mer-2-996 (RHDARK) : ____
**Result** 40

**Query** Reported Binding affinity, substance 6mer-2-1183 (RENNRK) : ____
**Result** 35

**Query** Reported Binding affinity, substance 6mer-2-1199 (RCTNKR) : ____
**Result** 27

###

# tested on: acetylcholine receptor (Homo sapiens)
# assay overview: SPR binding affinity (RU) of optimized 5mer/6mer/7mer peptides, Examples 6-7
# run parameters: SPR, peptides at 10 μM; 6mer-2 Bottom sequence
Simple rule here: Binding affinity less than 30 Ru is 1.0, otherwise 0.0.

**Query** I wonder whether 6mer-2-1198 (RMSHRR) has Binding affinity below 30 Ru. Can you tell?
**Result** 1.0

**Query** I wonder whether 6mer-2-1163 (KCHFKK) has Binding affinity below 30 Ru. Can you tell?
**Result** 0.0

**Query** I wonder whether 6mer-2-1068 (RIHVKK) has Binding affinity below 30 Ru. Can you tell?
**Result** 1.0

**Query** I wonder whether 6mer-2-1101 (RTKMRR) has Binding affinity below 30 Ru. Can you tell?
**Result** 0.0

**Query** I wonder whether 6mer-2-1089 (RKTDRR) has Binding affinity below 30 Ru. Can you tell?
**Result** 0.0

**Query** I wonder whether 6mer-2-1065 (RIANRK) has Binding affinity below 30 Ru. Can you tell?
**Result** 1.0

**Query** I wonder whether 6mer-2-1034 (KHSWRR) has Binding affinity below 30 Ru. Can you tell?
**Result** 0.0

**Query** I wonder whether 6mer-2-1169 (KICERK) has Binding affinity below 30 Ru. Can you tell?
**Result** 1.0

**Query** I wonder whether 6mer-2-1158 (RDNIRK) has Binding affinity below 30 Ru. Can you tell?
**Result** 0.0

**Query** I wonder whether 6mer-2-1180 (RAANRR) has Binding affinity below 30 Ru. Can you tell?
**Result** 0.0

**Query** I wonder whether 6mer-2-1071 (RTTWRK) has Binding affinity below 30 Ru. Can you tell?
**Result** 1.0

**Query** I wonder whether 6mer-2-1105 (RNNAKK) has Binding affinity below 30 Ru. Can you tell?
**Result** 1.0

**Query** I wonder whether 6mer-2-1098 (KHPKRR) has Binding affinity below 30 Ru. Can you tell?
**Result** 1.0

**Query** I wonder whether 6mer-2-1009 (KINPRK) has Binding affinity below 30 Ru. Can you tell?
**Result** 0.0

**Query** I wonder whether 6mer-2-1085 (RPEIRK) has Binding affinity below 30 Ru. Can you tell?
**Result** 0.0

**Query** I wonder whether 6mer-2-1173 (KCCNKK) has Binding affinity below 30 Ru. Can you tell?
**Result** 0.0

**Query** I wonder whether 6mer-2-1007 (RHTNKK) has Binding affinity below 30 Ru. Can you tell?
**Result** 0.0

**Query** I wonder whether 6mer-2-1168 (KMKPKK) has Binding affinity below 30 Ru. Can you tell?
**Result** 0.0

**Query** I wonder whether 6mer-2-1152 (RNWAKK) has Binding affinity below 30 Ru. Can you tell?
**Result** 0.0

**Query** I wonder whether 6mer-2-1113 (KPNFRK) has Binding affinity below 30 Ru. Can you tell?
**Result** 0.0

**Query** I wonder whether 6mer-2-1126 (RHEVRR) has Binding affinity below 30 Ru. Can you tell?
**Result** 1.0

**Query** I wonder whether 6mer-2-1010 (RANHKK) has Binding affinity below 30 Ru. Can you tell?
**Result** 0.0

**Query** I wonder whether 6mer-2-1082 (KYTERR) has Binding affinity below 30 Ru. Can you tell?
**Result** 0.0

**Query** I wonder whether 6mer-2-1018 (RPTKKK) has Binding affinity below 30 Ru. Can you tell?
**Result** 1.0

**Query** I wonder whether 6mer-2-1111 (REDEKK) has Binding affinity below 30 Ru. Can you tell?
**Result** 1.0

**Query** I wonder whether 6mer-2-1048 (RIHNRK) has Binding affinity below 30 Ru. Can you tell?
**Result** 1.0

**Query** I wonder whether 6mer-2-1133 (KMKMKK) has Binding affinity below 30 Ru. Can you tell?
**Result** 1.0

**Query** I wonder whether 6mer-2-1160 (RITVKK) has Binding affinity below 30 Ru. Can you tell?
**Result** 1.0

**Query** I wonder whether 6mer-2-1072 (KPHWKR) has Binding affinity below 30 Ru. Can you tell?
**Result** 1.0

**Query** I wonder whether 6mer-2-1153 (KHKPKR) has Binding affinity below 30 Ru. Can you tell?
**Result** 1.0

**Query** I wonder whether 6mer-2-1066 (KPEHKR) has Binding affinity below 30 Ru. Can you tell?
**Result** 1.0

**Query** I wonder whether 6mer-2-1128 (KNCMRK) has Binding affinity below 30 Ru. Can you tell?
**Result** 0.0

**Query** I wonder whether 6mer-2-1041 (RACDKR) has Binding affinity below 30 Ru. Can you tell?
**Result** 1.0

**Query** I wonder whether 6mer-2-1172 (KNCERR) has Binding affinity below 30 Ru. Can you tell?
**Result** 0.0

**Query** I wonder whether 6mer-2-1194 (KYCDRK) has Binding affinity below 30 Ru. Can you tell?
**Result** 0.0

**Query** I wonder whether 6mer-2-1179 (KACVKK) has Binding affinity below 30 Ru. Can you tell?
**Result** 0.0

**Query** I wonder whether 6mer-2-1159 (KDMGKR) has Binding affinity below 30 Ru. Can you tell?
**Result** 0.0

**Query** I wonder whether 6mer-2-1131 (RTNAKR) has Binding affinity below 30 Ru. Can you tell?
**Result** 1.0

**Query** I wonder whether 6mer-2-1170 (KFTIRR) has Binding affinity below 30 Ru. Can you tell?
**Result** 1.0

**Query** I wonder whether 6mer-2-1027 (KTPVKK) has Binding affinity below 30 Ru. Can you tell?
**Result** 0.0

**Query** I wonder whether 6mer-2-1112 (RASWRK) has Binding affinity below 30 Ru. Can you tell?
**Result** 1.0

**Query** I wonder whether 6mer-2-1084 (REKPRK) has Binding affinity below 30 Ru. Can you tell?
**Result** 1.0

**Query** I wonder whether 6mer-2-1103 (RDAWRK) has Binding affinity below 30 Ru. Can you tell?
**Result** 0.0

**Query** I wonder whether 6mer-2-1049 (KMSPRR) has Binding affinity below 30 Ru. Can you tell?
**Result** 1.0

**Query** I wonder whether 6mer-2-1002 (RCNDKR) has Binding affinity below 30 Ru. Can you tell?
**Result** 0.0

**Query** I wonder whether 6mer-2-1011 (RAEFRR) has Binding affinity below 30 Ru. Can you tell?
**Result** 1.0

**Query** I wonder whether 6mer-2-1021 (RYTPKR) has Binding affinity below 30 Ru. Can you tell?
**Result** 0.0

**Query** I wonder whether 6mer-2-1148 (KEKGKR) has Binding affinity below 30 Ru. Can you tell?
**Result** 0.0

**Query** I wonder whether 6mer-2-1175 (RYSKRR) has Binding affinity below 30 Ru. Can you tell?
**Result** 0.0

**Query** I wonder whether 6mer-2-1092 (RAKFRR) has Binding affinity below 30 Ru. Can you tell?
**Result** 1.0

**Query** I wonder whether 6mer-2-1017 (RAPVRR) has Binding affinity below 30 Ru. Can you tell?
**Result** 0.0

**Query** I wonder whether 6mer-2-1115 (KYSPRK) has Binding affinity below 30 Ru. Can you tell?
**Result** 0.0

**Query** I wonder whether 6mer-2-1074 (RPMGRK) has Binding affinity below 30 Ru. Can you tell?
**Result** 0.0

Value source: patent US20250011363A1
